Tested System: cloned human dopamine receptors D2 (Homo sapiens, UniProt P14416)
Sequence (P14416 whole entry): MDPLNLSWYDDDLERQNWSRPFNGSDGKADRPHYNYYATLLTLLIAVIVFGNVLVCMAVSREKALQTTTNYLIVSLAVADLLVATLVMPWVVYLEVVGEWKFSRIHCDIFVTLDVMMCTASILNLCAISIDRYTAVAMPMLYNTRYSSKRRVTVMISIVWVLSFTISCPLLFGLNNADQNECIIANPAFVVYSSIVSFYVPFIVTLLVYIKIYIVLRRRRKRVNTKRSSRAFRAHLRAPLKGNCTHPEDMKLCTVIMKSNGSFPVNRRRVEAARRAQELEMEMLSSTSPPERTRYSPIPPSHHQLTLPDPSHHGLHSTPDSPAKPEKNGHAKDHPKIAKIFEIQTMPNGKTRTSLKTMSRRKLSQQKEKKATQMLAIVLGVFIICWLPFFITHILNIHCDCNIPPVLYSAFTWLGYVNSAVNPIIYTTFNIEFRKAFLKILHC
Assay Text: Binding affinity to dopamine receptor, radiolabeled ligand displacement (D2)
Parameters: dose or concentration left out as unconfirmed
Endpoint Label: Affinity to Dopamine Receptors (% Inhibition) D2 (%)
The response must be a number in % with no trailing unit.

Please review the entries below; each comes with its answer.
Compound	Tested System	Units Text	Value Reported
COc1ccccc1N1CCN(CCCCC2CC(c3ccccc3)=NO2)CC1 (racemic)	cloned human dopamine receptors D2 (Homo sapiens, UniProt P14416)	%	58.3
COc1ccc(C2=NOC(CCCN3CCN(c4ccccc4)CC3)C2)cc1OC (stereo not drawn)	cloned human dopamine receptors D2 (Homo sapiens, UniProt P14416)	%	49.0
CCOc1ccccc1N1CCN(CCCC2CC(c3cccs3)=NO2)CC1 (racemic)	cloned human dopamine receptors D2 (Homo sapiens, UniProt P14416)	%	88.2
COc1ccccc1N1CCN(CCCC2CC(c3cccs3)=NO2)CC1 (stereo not drawn)	cloned human dopamine receptors D2 (Homo sapiens, UniProt P14416)	%	56.0
CCOc1ccccc1N1CCN(CCCC2CC(c3ccc(OC)c(OC)c3)=NO2)CC1 (racemic)	cloned human dopamine receptors D2 (Homo sapiens, UniProt P14416)	%	83.5

Okay, now this compound:
Given the compound COc1ccc(C2=NOC(CCCN3CCN(c4ccccc4OC)CC3)C2)cc1OC (stereo not drawn) , what is its reported Affinity to Dopamine Receptors (% Inhibition) D2?
57.7

Source of measurements: patent US6673800B2
